Tested on: BaF3 EML4-ALK WT cells
Experiment: Cytotoxicity on BaF3 cell transfected with EML4-ALK WT (WST-1)
Conditions: read-out: BaF3 EML4-ALK WT, IC50 of the cytotoxicity; 3 days, WST-1
MEASURED_ENDPOINT: IC50

GET IC50 where system = BaF3 EML4-ALK WT cells and item = COc1cc2c(cc1Nc1ncc(Cl)c(Nc3ccccc3S(=O)(=O)C(C)C)n1)CN(CCO)CC2(C)C [Example 93]
< 50 nM
